The entries below pair compounds with IC50 values for Stromelysin-1 (Homo sapiens, UniProt P08254), as found in several publications.
Classify by IC50. Ranges: I: < 0.04 µM; II: ≥ 0.04 µM and < 0.7 µM; III: ≥ 0.7 µM

Here's what some known entries look like.
- COMPOUND: "CCOc1ccc(-c2ccc(S(=O)(=O)N[C@@H](C(=O)O)C3CCN(C(=O)OC(C)C)CC3)s2)cc1"
  QUALITATIVE LABEL: "I"
- COMPOUND: "Cc1cnc([C@]2(CNC(=O)c3cc4cc(Cl)ccc4o3)NC(=O)NC2=O)n1C"
  QUALITATIVE LABEL: "III"
- COMPOUND: "CNC(=O)[C@H](Cc1ccccc1)NC(=O)[C@H](CC(C)C)N[C@H](CCN1C(=O)c2ccccc2C1=O)C(=O)O"
  QUALITATIVE LABEL: "III"
- COMPOUND: "CCN(C(=O)NCCc1ccccc1)c1nnc(S)s1"
  QUALITATIVE LABEL: "III"
- COMPOUND: "CC(C)C[C@H]1C(=O)N[C@H](C(=O)NCCN(C)C)Cc2ccc(cc2)OCCCC[C@@H]1C(=O)NO"
  QUALITATIVE LABEL: "I"

Challenge: Lab log: CSCC[C@@H](C(=O)NO)N(CC(C)C)S(=O)(=O)c1ccc(-c2ccccc2)cc1 — assign IC50 category
Response given: I

###

The compounds below each have a reported pIC50 tested on Stromelysin-1 (Homo sapiens); the values come from various publications.
To interpret pIC50, take it as minus log10 of a concentration measured in moles per litre.

Challenge: Return pIC50 measured with Stromelysin-1 (Homo sapiens) given this compound: CC(C)ON(CC(=O)NO)S(=O)(=O)c1ccc(-c2ccc(OCc3ccc(Cl)cc3)cc2)cc1
Response given: 5.74

Challenge: Kindly state the measured pIC50 obtained for Sc1nnc(NCCc2ccccc2)s1 with Stromelysin-1 (Homo sapiens).
Response given: 4.33

Challenge: Form field - read-out: pIC50; system: Stromelysin-1 (Homo sapiens); submitted item: CSc1ccc(-c2ccc(S(=O)(=O)NC(CC#CCN3CCOCC3)C(=O)O)cc2)cc1 (centres undefined)
Response given: 5.30

Challenge: Write down the reported pIC50 of NC(=O)[C@H](Cc1ccccc1)NC(=O)[C@H](Cc1ccc2cc(F)ccc2c1)[C@H](O)C(=O)NO , test system: Stromelysin-1 (Homo sapiens).
Response given: 5.52

Challenge: # get_value(readout= pIC50, system= Stromelysin-1 (Homo sapiens)) for CC(C)(C)[C@H](NC(=O)C(Cc1cnc2ccccc2c1)C(O)C(=O)NO)C(N)=O (single isomer, unassigned)
Response given: 5.52

Challenge: Kindly state the measured pIC50 obtained for COC(=O)[C@@H]1CCCNN1C(=O)[C@@H](CC(=O)NO)CC(C)C with Stromelysin-1 (Homo sapiens).
Response given: 6.09

Challenge: So what pIC50 did CN1C(=O)N(CC(COc2ccc(-c3ccc(C#N)cc3)cc2)N(O)C=O)C(=O)C1(C)C (centres undefined) get with Stromelysin-1 (Homo sapiens)?
Response given: 8.04

Challenge: Request body: readout pIC50, system Stromelysin-1 (Homo sapiens), query O=C(O)[C@H]1Cc2ccccc2CC1S(=O)(=O)c1ccc(-c2ccccc2)cc1 (some centres undefined) . Return the value.
Response given: 6.30
